Exercise: for every item that follows, state its recorded protein stability index.
B1: VTI1B (parent)
chain: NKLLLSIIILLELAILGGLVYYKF

variants of: B1; assay: protein stability index of a GFP-peptide fusion (GPS, HEK-293T) (PSI 1-6); higher = more stable; conditions: c terminus: a fixed tail appended;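 further: lentivirally expressed fusions sorted by FACS into six bins by GFP to DsRed ratio, PSI derived from sequencing read proportions per bin multiplied by bin number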
Give bare numbers.

Answered examples (3):
{"columns": ["variant_code", "protein stability index"],
 "data": [
  ["K23E", 2.78],
  ["L10T", 1.93],
  ["G17F", 3.71]
]}

Hey, can you go through the list below and give me protein stability index for every item?
1. G18S
2. N1R
3. I7T

*A*
1. 3.16
2. 2.99
3. 3.78

Hey, can you go through the list below and give me protein stability index for every item?
1. K2C
2. F24K
3. L13R
4. A14C
5. E12F

*A*
1. 2.17
2. 1.52
3. 3.24
4. 2.98
5. 2.17

Hey, can you go through the list below and give me protein stability index for every item?
1. L16K
2. K23C
3. S6G
4. L11D
5. Y21K
6. G17H
7. L4F
8. I7C

*A*
1. 3.6
2. 2.27
3. 1.88
4. 3.12
5. 2.65
6. 2.42
7. 3.51
8. 2.9

Hey, can you go through the list below and give me protein stability index for every item?
1. E12T
2. F24N
3. L5I

*A*
1. 2.87
2. 1.86
3. 3.01

Where do these numbers come from? They come from the supplement of paper PMC10567573.
